What protein stability index was measured for each of the following?
B1: GLTSCR2 (parent)
chain: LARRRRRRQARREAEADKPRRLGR

variants of: B1; experiment: protein stability index of a GFP-peptide fusion (GPS, HEK-293T) (PSI 1-6); higher = more stable; settings: c terminus: a fixed tail appended;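 further: lentivirally expressed fusions sorted by FACS into six bins by GFP to DsRed ratio, PSI derived from sequencing read proportions per bin multiplied by bin number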
Numbers only.

Observe how each entry below is paired with its result.
R12I; 4.72
A10D; 3.92
A14S; 4.7
R3L; 4.3
R21A; 5.06
R6G; 4.55

Hey, can you go through the list below and give me protein stability index for every item?
1. A10V
2. E15A
3. R24H
4. Q9R
5. L1H
6. E13P
7. R5T
8. R21P

Result:
4.57
4.78
4.8
4.95
5.28
4.36
4.15
3.66

// each variant listed below needs its protein stability index
1. E13I
2. Q9L
3. D17A
4. L22E
5. R5F
6. Q9T
7. R21E

Result:
[4.73, 4.66, 4.3, 5.15, 4.76, 5.12, 4.8]

These data points were gathered from the supplement of paper PMC10567573.
